Hello, the source for this data is patent US12053451B2, in case you need it.

- targetOrSystem: recombinant human arginase 2 (Homo sapiens, UniProt P78540)
- Sequence (P78540 23-354): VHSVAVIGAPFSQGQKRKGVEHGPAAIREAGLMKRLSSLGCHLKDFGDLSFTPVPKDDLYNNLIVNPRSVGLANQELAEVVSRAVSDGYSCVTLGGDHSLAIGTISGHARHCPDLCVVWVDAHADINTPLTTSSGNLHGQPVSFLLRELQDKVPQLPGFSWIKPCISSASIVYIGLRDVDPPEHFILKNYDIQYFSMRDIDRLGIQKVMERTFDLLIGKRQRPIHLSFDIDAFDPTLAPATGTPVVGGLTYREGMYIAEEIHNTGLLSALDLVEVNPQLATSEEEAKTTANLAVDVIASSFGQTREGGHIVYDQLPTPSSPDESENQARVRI
- measurementDescription: Human arginase activity assay (urea measurement), arginase 2
- assayConditions: for selected examples class estimated from % of inhibition at 1 μM and 100 μM, * = most potent diastereoisomer or mixture of diastereoisomers, read-out: Activity Class (ARG II)
Where a name gives a salt, the structure may show the parent alone.
Entries and their IC50 values follow.

- compound: "NC1(C(=O)O)CNC(CCB(O)O)C1 (centres unmarked) [Example 9, dihydrochloride]"
  targetOrSystem: "recombinant human arginase 2 (Homo sapiens, UniProt P78540)"
  IC50: "> 100 µM"
- compound: "CN1C[C@@H](CCB(O)O)C[C@](N)(C(=O)O)C1 (racemic) [Example 59]"
  targetOrSystem: "recombinant human arginase 2 (Homo sapiens, UniProt P78540)"
  IC50: "1 to 10 µM"
- compound: "CCN(C)C[C@@H]1CC[C@@H](CCB(O)O)C[C@]1(N)C(=O)O [Example 69]"
  targetOrSystem: "recombinant human arginase 2 (Homo sapiens, UniProt P78540)"
  IC50: "0.001 to 0.1 µM"
- compound: "NC1(C(=O)O)CC(CCB(O)O)CCC1(O)Cc1ccc(Cl)cc1 (single isomer, unassigned) [Example 52, hydrochloride]"
  targetOrSystem: "recombinant human arginase 2 (Homo sapiens, UniProt P78540)"
  IC50: "10 to 100 µM"

// query Record request: IC50 value, item CN(C[C@@H]1CC[C@@H](CCB(O)O)C[C@]1(N)C(=O)O)c1ccccc1 (racemic) [Example 40, dihydrochloride]
// result 1 to 10 µM

---

Entries and their IC50 values follow.
- targetOrSystem: recombinant human arginase 1 (Homo sapiens, UniProt P05089)
- Sequence (P05089 1-322): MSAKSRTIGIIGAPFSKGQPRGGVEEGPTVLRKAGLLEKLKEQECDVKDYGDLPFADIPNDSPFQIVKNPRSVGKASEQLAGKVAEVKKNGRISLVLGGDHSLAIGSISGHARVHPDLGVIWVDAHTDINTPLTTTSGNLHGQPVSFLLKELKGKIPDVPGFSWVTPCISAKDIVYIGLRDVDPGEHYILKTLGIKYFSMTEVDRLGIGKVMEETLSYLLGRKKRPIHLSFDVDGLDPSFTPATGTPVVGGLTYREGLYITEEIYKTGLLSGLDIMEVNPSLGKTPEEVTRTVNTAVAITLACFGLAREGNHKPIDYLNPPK
- measurementDescription: Human arginase activity assay (urea measurement), arginase 1
- assayConditions: recombinant human arginase 1, pH 7.4, 37° C., 60 min; * = value for the most potent diastereoisomer or the mixture of diastereoisomers; read-out: Activity Class (ARG I)
Where a name gives a salt, the structure may show the parent alone.

- molecule: "N[C@@](CCCCB(O)O)(C(=O)O)C1CCN(Cc2ccc(Cl)c(Cl)c2)CC1 [Comparative example 3, reference compound]"
  valueType: "IC50"
  measured: "0.001 to 0.1 µM"

// query Record request: IC50 value, item N[C@@]1(C(=O)O)COC[C@@H](CCB(O)O)C1 (racemic) [Example 61, hydrochloride]
// result 0.1 to 1 µM

// query Now the same for CN(C)CC1CC(CCB(O)O)CC1(N)C(=O)O (racemic)
// result 10 to 100 µM

// query Now the same for NC[C@H]1C[C@](N)(C(=O)O)C[C@@H]1CCB(O)O (racemic) [Example 6, dihydrochloride]
// result 1 to 10 µM

// query Now the same for CN(C)C1CC(CCB(O)O)CC(N)(C(=O)O)C1 (stereo not shown) [Example 65, dihydrochloride]
// result 10 to 100 µM

// query Now the same for CN(C)C1CCC(CCB(O)O)CC1(N)C(=O)O (racemic) [Example 64, dihydrochloride]
// result 10 to 100 µM

// query Now the same for NC1(C(=O)O)CCCCC(CCB(O)O)C1 (stereo not shown) [Example 12, hydrochloride]
// result > 100 µM

// query Now the same for NC1(C(=O)O)CC(CCB(O)O)CC=C1Cc1ccc(Cl)cc1 (stereo not shown) [Example 53, hydrochloride]
// result 0.1 to 1 µM

// query Now the same for CN(C)C[C@@H]1CC[C@@H](CCB(O)O)C[C@@]1(N)C(=O)O (racemic) [Example 19, dihydrochloride]
// result 1 to 10 µM

// query Now the same for CCN(CC)C[C@@H]1CC[C@@H](CCB(O)O)C[C@]1(N)C(=O)O (racemic) [Example 30, dihydrochloride]
// result 0.1 to 1 µM
